The reported numbers originate from patent US10711011B2.

Assay: Mouse oral pharmacokinetics
Type: in vivo, BALB/c mice
Conditions: BALB/c, mouse, plasma; mice, single oral dose 10 mg/kg
measure_name: Tmax (min)
Quick note: give the figure in min, leave out the unit.

Consider the compound shown here: CN1C(=O)Cc2ccc(F)c(CCNCCC3CN(c4ccc5c(n4)NC(=O)CO5)C(=O)O3)c21 (single isomer, unassigned) [Example 13] What is its recorded Tmax?
30

====

Assay: Mouse intravenous pharmacokinetics
Assay type: in vivo, BALB/c mice
Conditions: BALB/c, mouse, plasma, iv, 2 mg/kg, mice, i.v., read-out: CL (converted)
measure_name: clearance (mL/min/kg)
Write down the numeric answer in mL/min/kg and omit the unit.

# clearance lookup, item CN1C(=O)Cc2ccc(F)c(CCNCCC3CN(c4ccc5c(n4)NC(=O)CO5)C(=O)O3)c21 (single isomer, unassigned)
94.8

====

Test: Mouse oral pharmacokinetics
Type: in vivo, BALB/c mice
Settings: BALB/c, mouse, plasma, po, 2 mg/kg, mice, single oral dose 2 mg/kg; read-out: AUC0-∞
measure_name: AUC(0-inf)
Hey, just the number and the unit after it is fine.

What value of AUC(0-inf) has been recorded for this entry: CN1C(=O)Cc2ccc(F)c(CCNCCC3CN(c4ccc5c(n4)NC(=O)CO5)C(=O)O3)c21 (single isomer, unassigned)
70 ng·h/mL

====

Assay: Mouse oral pharmacokinetics
Format: in vivo, BALB/c mice
Settings: mouse, plasma; BALB/c mice, single oral doses of 2, 10, 50 and 100 mg/kg; read-out: oral bioavailability, range over oral doses
measure_name: bioavailability

Please report the recorded bioavailability for CN1C(=O)Cc2ccc(F)c(CCNCCC3CN(c4ccc5c(n4)NC(=O)CO5)C(=O)O3)c21 (single isomer, unassigned) [Example 13] .
19 to 27%

====

Experiment: Mouse oral pharmacokinetics
Format: in vivo, BALB/c mice
Details: BALB/c, mouse, plasma; mice, single oral dose 10 mg/kg; read-out: Clast
measure_name: concentration at 8 h (ng/mL)
The reply should contain only the number, in ng/mL.

Reported concentration at 8 h for CN1C(=O)Cc2ccc(F)c(CCNCCC3CN(c4ccc5c(n4)NC(=O)CO5)C(=O)O3)c21 (single isomer, unassigned) : what is it?
9

====

Test: Mouse oral pharmacokinetics
Type: in vivo, BALB/c mice
Details: BALB/c, mouse, plasma, po, 50 mg/kg, mice, single oral dose 50 mg/kg; read-out: t1/2 (converted)
measure_name: half-life (h)
Give your result in h as a bare value.

Quick check: half-life of CN1C(=O)Cc2ccc(F)c(CCNCCC3CN(c4ccc5c(n4)NC(=O)CO5)C(=O)O3)c21 (single isomer, unassigned) ?
1.6

====

Test: Mouse intravenous pharmacokinetics
Assay type: in vivo, BALB/c mice
Conditions: BALB/c, mouse, plasma, iv, 2 mg/kg, BALB/c mice, single i.v. dose of 2.0 mg/kg; read-out: systemic clearance (converted)
measure_name: clearance (mL/min/kg)
Report only the number, with the unit mL/min/kg understood.

Given the compound CN1C(=O)Cc2ccc(F)c(CCNCCC3CN(c4ccc5c(n4)NC(=O)CO5)C(=O)O3)c21 (single isomer, unassigned) , what is its reported clearance?
95

====

Test: Mouse intravenous pharmacokinetics
Type: in vivo, BALB/c mice
Conditions: BALB/c, mouse, plasma, iv, 2 mg/kg, mice
Procedure: To assess the Oral and Intravenous pharmacokinetic profile of Example 13, pharmacokinetics (PK) of Example 13 was characterized in BALB/c mice following single intravenous (i.v.) dose of 2 mg/kg and single escalating oral doses of 2, 10, 50 and 100 mg/kg, respectively. This study was performed following all ethical practices as laid down in the guidelines for animal care (Registration number No. 1852/PO/Rc/S/16/CPCSEA). […] The plasma (mice) samples were analyzed by LC-MS/MS. […]
measure_name: half-life
# output: numeric value plus its unit

Quick check: half-life of CN1C(=O)Cc2ccc(F)c(CCNCCC3CN(c4ccc5c(n4)NC(=O)CO5)C(=O)O3)c21 (single isomer, unassigned) ?
1.7 h

====

Assay: Mouse oral pharmacokinetics
Type: in vivo, BALB/c mice
Conditions: BALB/c, mouse, plasma; mice, single oral dose 10 mg/kg
measure_name: AUC(0-t)

Give its AUC(0-t) value. Item: CN1C(=O)Cc2ccc(F)c(CCNCCC3CN(c4ccc5c(n4)NC(=O)CO5)C(=O)O3)c21 (single isomer, unassigned) [Example 13]
311 ng·h/mL

====

Test: Mouse intravenous pharmacokinetics
Format: in vivo, BALB/c mice
Conditions: BALB/c, mouse, plasma, iv; mice, 2 mg/kg
measure_name: AUC(0-inf) (ng·h/mL)
Please respond with the number in ng·h/mL and leave the unit unwritten.

Need AUC(0-inf) of CN1C(=O)Cc2ccc(F)c(CCNCCC3CN(c4ccc5c(n4)NC(=O)CO5)C(=O)O3)c21 (single isomer, unassigned) [Example 13] , thanks.
352

====

Assay: Mouse oral pharmacokinetics
Assay type: in vivo, BALB/c mice
Conditions: BALB/c, mouse, plasma; mice, single oral dose 50 mg/kg; read-out: Clast
Experimental: To assess the Oral and Intravenous pharmacokinetic profile of Example 13, pharmacokinetics (PK) of Example 13 was characterized in BALB/c mice following single intravenous (i.v.) dose of 2 mg/kg and single escalating oral doses of 2, 10, 50 and 100 mg/kg, respectively. This study was performed following all ethical practices as laid down in the guidelines for animal care (Registration number No. 1852/PO/Rc/S/16/CPCSEA). […] The plasma (mice) samples were analyzed by LC-MS/MS. […]
measure_name: concentration at 8 h (ng/mL)
The reply should contain only the number, in ng/mL.

Which concentration at 8 h value belongs to CN1C(=O)Cc2ccc(F)c(CCNCCC3CN(c4ccc5c(n4)NC(=O)CO5)C(=O)O3)c21 (single isomer, unassigned) [Example 13] ?
28

====

Test: Mouse oral pharmacokinetics
Type: in vivo, BALB/c mice
Conditions: BALB/c, mouse, plasma, po, 100 mg/kg, mice, single oral dose 100 mg/kg
measure_name: Cmax (ng/mL)
Express the result in ng/mL but write the number alone.

Looking for the measured Cmax of CN1C(=O)Cc2ccc(F)c(CCNCCC3CN(c4ccc5c(n4)NC(=O)CO5)C(=O)O3)c21 (single isomer, unassigned) , can you help?
2380

====

Assay: Mouse oral pharmacokinetics
Assay type: in vivo, BALB/c mice
Conditions: BALB/c, mouse, plasma, po, 100 mg/kg, mice, single oral dose 100 mg/kg; read-out: t1/2 (converted)
measure_name: half-life (h)
// units = h; emit number, no label

Param item = CN1C(=O)Cc2ccc(F)c(CCNCCC3CN(c4ccc5c(n4)NC(=O)CO5)C(=O)O3)c21 (single isomer, unassigned) [Example 13] ; retrieve measured half-life.
1.42

====

Molecular target: E. coli DNA gyrase (Escherichia coli, UniProt P0AES4+P0AES6)
Sequence (P0AES4 whole entry, one chain of several): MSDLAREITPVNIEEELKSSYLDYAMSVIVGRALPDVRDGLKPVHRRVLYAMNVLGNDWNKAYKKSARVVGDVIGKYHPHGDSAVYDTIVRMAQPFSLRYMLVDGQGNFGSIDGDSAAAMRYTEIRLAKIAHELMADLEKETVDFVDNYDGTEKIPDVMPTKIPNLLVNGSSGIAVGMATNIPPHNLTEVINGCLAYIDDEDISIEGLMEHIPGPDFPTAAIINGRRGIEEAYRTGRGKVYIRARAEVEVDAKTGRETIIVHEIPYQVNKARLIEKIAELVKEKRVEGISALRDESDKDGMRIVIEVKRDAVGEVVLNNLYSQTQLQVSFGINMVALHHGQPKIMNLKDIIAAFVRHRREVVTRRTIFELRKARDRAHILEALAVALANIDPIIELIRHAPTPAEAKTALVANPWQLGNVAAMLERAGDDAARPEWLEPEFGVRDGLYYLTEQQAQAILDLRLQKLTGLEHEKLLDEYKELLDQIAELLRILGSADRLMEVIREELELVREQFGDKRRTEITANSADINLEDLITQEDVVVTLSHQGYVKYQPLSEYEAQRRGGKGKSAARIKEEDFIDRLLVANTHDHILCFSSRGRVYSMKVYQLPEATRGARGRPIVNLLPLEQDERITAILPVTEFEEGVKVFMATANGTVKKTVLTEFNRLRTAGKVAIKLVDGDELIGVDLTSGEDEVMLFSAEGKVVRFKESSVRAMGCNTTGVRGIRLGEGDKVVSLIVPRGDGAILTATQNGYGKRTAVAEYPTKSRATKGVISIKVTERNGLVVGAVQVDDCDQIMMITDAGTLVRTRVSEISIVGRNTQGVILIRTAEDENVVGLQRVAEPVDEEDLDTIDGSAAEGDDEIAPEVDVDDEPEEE
Assay: biochemical
Conditions: supercoiling assay
pIC50: −log10 of the molar value.
Param threshold (7) applies to pIC50; output T when value >= threshold, F when value < threshold.

Previously resolved entries follow.
molecule	group_label
CN1C(=O)Cc2ccc(F)c(CNCCCC3CN(c4ccc5c(n4)NC(=O)CO5)C(=O)O3)c21 (racemic) [Example 6]	T
CN1C(=O)C(C)(C)c2ccc(F)c(CNCCC3CN(c4ccc5c(n4)NC(=O)CO5)C(=O)O3)c21 (stereo not shown)	F
CN1C(=O)Cc2ccc(F)c(CCNCCC3CN(c4ccc5c(n4)NC(=O)CO5)C(=O)O3)c21 (racemic) [Example 11]	T

Turning now to a further record.
Identify whether the reported pIC50 of the following molecule is 7 or greater: CN1C(=O)Cc2ccc(F)c(CCNCCC3CN(c4ccc5c(n4)NC(=O)CO5)C(=O)O3)c21 (single isomer, unassigned) [Example 13]
T

====

Experiment: Mouse oral pharmacokinetics
Assay type: in vivo, BALB/c mice
Details: BALB/c, mouse, plasma, po, 2 mg/kg, mice, single oral dose 2 mg/kg; read-out: t1/2 (converted)
measure_name: half-life (h)
Kindly provide the numeric value in h only, without the unit symbol.

Give the measured half-life of CN1C(=O)Cc2ccc(F)c(CCNCCC3CN(c4ccc5c(n4)NC(=O)CO5)C(=O)O3)c21 (single isomer, unassigned) .
5.63

====

Assay: Mouse oral pharmacokinetics
Type: in vivo, BALB/c mice
Conditions: BALB/c, mouse, plasma; mice, single oral dose 2 mg/kg; read-out: Clast
measure_name: concentration at 24 h (ng/mL)
Please state the figure in ng/mL; there is no need to write the unit.

Return reported concentration at 24 h; argument: CN1C(=O)Cc2ccc(F)c(CCNCCC3CN(c4ccc5c(n4)NC(=O)CO5)C(=O)O3)c21 (single isomer, unassigned)
4

====

Assay: Mouse oral pharmacokinetics
Assay type: in vivo, BALB/c mice
Conditions: BALB/c, mouse, plasma, po, 50 mg/kg, mice, single oral dose 50 mg/kg; read-out: AUC0-∞
measure_name: AUC(0-inf) (ng·h/mL)
# output: bare number, implied unit ng·h/mL

Given CN1C(=O)Cc2ccc(F)c(CCNCCC3CN(c4ccc5c(n4)NC(=O)CO5)C(=O)O3)c21 (single isomer, unassigned) , state its recorded AUC(0-inf).
1970
